Data origin, for the record: patent US8962891B2

Task for the reader: assign each of the following compounds its reported pIC50.
# Test system: CRL-1976
# experimentNotes: IC50 in cancer cell lines (Table 1), CRL-1976
# Type: cell-based
# assayContext: CRL-1976 (Sarcoma), incubation 24 hours, FCS yes, 0.2*10^6/ml plated cells
On this scale, pIC50 is minus log10 of a concentration expressed in M (mol/L).

I am curious: what pIC50 value has been reported for "CCCCCCCCCCCCCCNC(CO)CO" ?
5.30

Proceed to "CCCCCCCCCCCCCCCCCCNC(CO)(CO)CO"
4.70

* * *

# System: LNCaP
# experimentNotes: IC50 in cancer cell lines (Table 1), LNCaP
# Assay type: cell-based
# assayContext: Homo sapiens; LNCaP (Prostate), incubation 72 hours, FCS yes, 0.5 × 10^6/ml plated cells
testReadout: pIC50
On this scale, pIC50 is minus log10 of a concentration expressed in M (mol/L).

I am curious: what pIC50 value has been reported for "CCCCCCCCCCCCCCCCCCNC(CO)(CO)CO" ?
5.52

* * *

# Tested on: LNCaP
# experimentNotes: IC50 in cancer cell lines (Table 1), LNCaP
# Type: cell-based
# assayContext: Homo sapiens, LNCaP, 48 h, LNCaP (Prostate), incubation 48 hours, FCS yes, 0.1 × 10^6/ml plated cells
testReadout: IC50 (µM)
Write the answer as a number in µM, unit excluded.

I am curious: what IC50 value has been reported for "CCCCCCCCCCCCCCNC(CO)CO" ?
8.7

* * *

Task for the reader: assign each of the following compounds its reported IC50.
# System: CRL-1687
# experimentNotes: IC50 in cancer cell lines (Table 1), CRL-1687
# Format: cell-based
# assayContext: CRL-1687 (Pancreas), incubation 24 hours, FCS yes, 0.2*10^6/ml plated cells
Write the answer as a number in µM, unit excluded.

I am curious: what IC50 value has been reported for "CCCCCCCCCCCCCCNC(CO)CO" ?
15

Proceed to "CCCCCCCCCCCCCCCCCCNC(CO)(CO)CO"
22
